test system: Factor VII; assay: Factor VII activity assay, in vivo liver delivery of FVII siRNA LNP; set-up: species or system mouse; settings: dose 1 mg/kg siRNA i.v., ~48 h; lipid/DSPC/CHOL/AVANTI 880150P 50/28/18/4, N/P 3.43
Tag: satisfied if measured FVII inhib % is not below 70%, not satisfied if it is.

Past entries and their recorded results:
[[record]]
compound = "CCCCC/C=C\\C/C=C\\CCCCCCCCOCC(CN1CCN(C(=O)OC(C)(C)C)CC1)OCCOCCO[C@H]1CC[C@@]2(C)C(=CC[C@H]3[C@@H]4CC[C@H]([C@H](C)CCCC(C)C)[C@@]4(C)CC[C@@H]32)C1 (stereo partly drawn)"
class = "not satisfied"

[[record]]
compound = "CCCCC/C=C\\C/C=C\\CCCCCCCCOCC(CN1CCCCC1)OCCOCCNC(=O)O[C@H]1CC[C@@]2(C)C(=CCC3C2CC[C@@]2(C)C3CC[C@@H]2[C@H](C)CCCC(C)C)C1 (stereo partly drawn)"
class = "not satisfied"

[[record]]
compound = "CCCCC/C=C\\C/C=C\\CCCCCCCCOCC(CN1CCC(OC)C1)OCCOCCO[C@H]1CC[C@@]2(C)C(=CC[C@H]3[C@@H]4CC[C@H]([C@H](C)CCCC(C)C)[C@@]4(C)CC[C@@H]32)C1 (stereo partly drawn)"
class = "satisfied"


Now consider a different compound.
Q. Assess whether reported FVII inhib % for CCCCC/C=C\C/C=C\CCCCCCCCOCC(CN1CCCCCC1)OCCOCCO[C@H]1CC[C@@]2(C)C(=CC[C@H]3[C@@H]4CC[C@H]([C@H](C)CCCC(C)C)[C@@]4(C)CC[C@@H]32)C1 (stereo partly drawn) sits at 70% or higher.
A. not satisfied
